Would you mind telling me the reported Selectivity Index of each entry?
assay: Selectivity index, CC50 for african green monkey Vero cells to IC50 for Trypanosoma cruzi 320I01 epimastigote; type: functional

Respectfully, I request Selectivity Index for each entry included below.
1. COc1cccc([C@@H]2C[C@H](O)Cc3ccccc3N2)c1 (relative stereo)
2. Clc1ccc([C@@H]2C[C@@H]3Cc4ccccc4N2O3)cc1 (relative stereo)
3. Clc1ccc2c(c1)C[C@H]1C[C@@H](c3c(Cl)cccc3Cl)N2O1 (relative stereo)
4. Fc1ccc2c(c1)C[C@H]1C[C@@H](c3ccc(Cl)cc3)N2O1 (relative stereo)
5. FC(F)(F)Oc1ccc2c(c1)C[C@H]1C[C@@H](c3ccccc3)N2O1 (relative stereo)
6. O[C@@H]1Cc2ccccc2N[C@H](c2ccc(Cl)cc2)C1 (relative stereo)
7. CC1CS(=O)(=O)CCN1/N=C/c1ccc([N+](=O)[O-])o1 (stereo not drawn)

A.
1: >10; 2: >8; 3: >0.56; 4: >8; 5: >11; 6: >4; 7: 26.36

The reported Selectivity Index of the molecule Clc1ccc2c(c1)C[C@H]1C[C@@H](c3ccccc3)N2O1 (relative stereo) was >33

====

system: Leishmania chagasi; test: Antileishmanial activity against Leishmania chagasi MHOM/BR/74/PP75 promastigotes after 72 hrs by haemocytometry; assay type: functional, organism-based; conditions: MHOM/BR/74/PP75, 72 h
TEST READOUT: IC90 (µM)
Answers are plain numbers, in µM.

Check out these entries, answers already filled in.
INSERT INTO results (molecule, unit, value_observed) VALUES
  ('O[C@@H]1Cc2cc(Cl)ccc2N[C@H](c2ccccc2)C1 (relative stereo)', 'µM', 90.6),
  ('Clc1cccc([C@@H]2C[C@@H]3Cc4ccccc4N2O3)c1 (relative stereo)', 'µM', 70.7),
  ('O[C@@H]1Cc2cc(Cl)ccc2N[C@H](c2ccc(Cl)cc2)C1 (relative stereo)', 'µM', 41),
  ('Clc1ccc2c(c1)C[C@H]1C[C@@H](c3ccc(Br)cc3)N2O1 (relative stereo)', 'µM', 42.2),
  ('FC(F)(F)Oc1ccc2c(c1)C[C@H]1C[C@@H](c3ccccc3)N2O1 (relative stereo)', 'µM', 34.7);

Continue with the molecule presented below.
The reported IC90 of the molecule Clc1ccc([C@@H]2C[C@@H]3Cc4ccccc4N2O3)cc1 (relative stereo) was 67.5

====

system: Leishmania chagasi; experiment: Antileishmanial activity against Leishmania chagasi MHOM/BR/74/PP75 promastigotes after 72 hrs by haemocytometry; type: functional, organism-based; conditions: MHOM/BR/74/PP75, 72 h
Could you please mark rule met for values of IC90 below 50 µM and rule not met for values at or above it?

Known results for compounds:
INSERT INTO results (compound, qualitative_label) VALUES
  ('O[C@@H]1Cc2cc(Cl)ccc2N[C@H](c2c(Cl)cccc2Cl)C1 (relative stereo)', 'rule met'),
  ('O[C@@H]1Cc2ccccc2N[C@H](c2cccc(Cl)c2)C1 (relative stereo)', 'rule met');

Q. Could you please tell me whether IC90 recorded for COc1cccc([C@@H]2C[C@@H]3Cc4ccccc4N2O3)c1 (relative stereo) is less than 50 µM?
A. rule not met

Q. Could you please tell me whether IC90 recorded for COc1cccc([C@@H]2C[C@H](O)Cc3ccccc3N2)c1 (relative stereo) is less than 50 µM?
A. rule not met

Q. Could you please tell me whether IC90 recorded for Fc1ccccc1[C@@H]1C[C@@H]2Cc3ccccc3N1O2 (relative stereo) is less than 50 µM?
A. rule met

Q. Could you please tell me whether IC90 recorded for O[C@@H]1Cc2cc(Cl)ccc2N[C@H](c2ccccc2Cl)C1 (relative stereo) is less than 50 µM?
A. rule not met

Q. Could you please tell me whether IC90 recorded for Cc1ccc([C@@H]2C[C@H](O)Cc3cc(C)ccc3N2)cc1 (relative stereo) is less than 50 µM?
A. rule not met

====

Would you mind telling me the reported Selectivity Index of each entry?
assay: Selectivity index, CC50 for african green monkey Vero cells to IC50 for Trypanosoma cruzi 320I01 amastigotes; format: functional

Check out these entries, answers already filled in.
INSERT INTO results (compound, test_readout, value_observed) VALUES
  ('Clc1ccc2c(c1)C[C@H]1C[C@@H](c3ccccc3Cl)N2O1 (relative stereo)', 'Selectivity Index', '>1'),
  ('Cc1ccc([C@@H]2C[C@@H]3Cc4cc(C)ccc4N2O3)cc1 (relative stereo)', 'Selectivity Index', 4.6);

Respectfully, I request Selectivity Index for each entry included below.
1. O[C@@H]1Cc2cc(Cl)ccc2N[C@H](c2ccccc2F)C1 (relative stereo)
2. Clc1cccc([C@@H]2C[C@@H]3Cc4ccccc4N2O3)c1 (relative stereo)

A.
[">4", ">3"]

====

assay: Cytotoxicity against african green monkey Vero cells after 72 hrs by MTT assay; format: cell-based; details: chlorocebus sabaeus
TEST READOUT: CC90 at 72 h

Check out these entries, answers already filled in.
INSERT INTO assay_data (molecule, value_observed) VALUES
  ('Clc1ccc2c(c1)C[C@H]1C[C@@H](c3c(Cl)cccc3Cl)N2O1 (relative stereo)', '> 295 µM'),
  ('O[C@@H]1Cc2cc(Br)ccc2N[C@H](c2ccccc2)C1 (relative stereo)', '> 300 µM'),
  ('Clc1cccc(Cl)c1[C@@H]1C[C@@H]2Cc3ccccc3N1O2 (relative stereo)', '> 300 µM'),
  ('Clc1ccc2c(c1)C[C@H]1C[C@@H](c3ccccc3Cl)N2O1 (relative stereo)', '> 300 µM'),
  ('O[C@@H]1Cc2cc(Cl)ccc2N[C@H](c2c(Cl)cccc2Cl)C1 (relative stereo)', '176 µM'),
  ('Cc1cccc([C@@H]2C[C@H](O)Cc3ccccc3N2)c1 (relative stereo)', '> 300 µM'),
  ('COc1cccc([C@@H]2C[C@H](O)Cc3ccccc3N2)c1 (relative stereo)', '> 300 µM'),
  ('O[C@@H]1Cc2ccccc2N[C@H](c2ccccc2)C1 (relative stereo)', '> 300 µM');

Respectfully, I request CC90 at 72 h for each entry included below.
1. O[C@@H]1Cc2cc(Cl)ccc2N[C@H](c2ccccc2F)C1 (relative stereo)
2. Brc1ccc2c(c1)C[C@H]1C[C@@H](c3ccccc3)N2O1 (relative stereo)
3. Fc1ccc2c(c1)C[C@H]1C[C@@H](c3ccccc3)N2O1 (relative stereo)
4. O[C@@H]1Cc2cc(Cl)ccc2N[C@H](c2ccc(Br)cc2)C1 (relative stereo)

A.
1. > 300 µM
2. > 300 µM
3. > 300 µM
4. 164 µM

Respectfully, I request CC90 at 72 h for each entry included below.
1. Fc1ccccc1[C@@H]1C[C@@H]2Cc3cc(Cl)ccc3N1O2 (relative stereo)
2. Cc1ccc([C@@H]2C[C@@H]3Cc4cc(C)ccc4N2O3)cc1 (relative stereo)
3. Clc1ccc([C@@H]2C[C@@H]3Cc4ccccc4N2O3)cc1 (relative stereo)
4. O[C@@H]1Cc2cc(Cl)ccc2N[C@H](c2c(F)cccc2Cl)C1 (relative stereo)
5. Clc1ccc([C@@H]2C[C@@H]3Cc4cc(Cl)ccc4N2O3)cc1 (relative stereo)

A.
1: > 300 µM; 2: > 300 µM; 3: > 300 µM; 4: 182 µM; 5: > 300 µM

Respectfully, I request CC90 at 72 h for each entry included below.
1. O[C@@H]1Cc2cc(OC(F)(F)F)ccc2N[C@H](c2ccccc2)C1 (relative stereo)
2. Fc1ccccc1[C@@H]1C[C@@H]2Cc3ccccc3N1O2 (relative stereo)

A.
1: 263 µM; 2: > 300 µM

Respectfully, I request CC90 at 72 h for each entry included below.
1. Cc1ccc2c(c1)C[C@@H](O)C[C@@H](c1ccccc1Cl)N2 (relative stereo)
2. c1ccc([C@@H]2C[C@@H]3Cc4ccccc4N2O3)cc1 (relative stereo)
3. Fc1ccc2c(c1)C[C@H]1C[C@@H](c3ccc(Cl)cc3)N2O1 (relative stereo)
4. O[C@@H]1Cc2ccccc2N[C@H](c2ccc(F)cc2)C1 (relative stereo)
5. CC1CS(=O)(=O)CCN1/N=C/c1ccc([N+](=O)[O-])o1 (stereo not given)
6. O[C@@H]1Cc2ccccc2N[C@H](c2c(F)cccc2Cl)C1 (relative stereo)
7. Fc1ccc([C@@H]2C[C@@H]3Cc4ccccc4N2O3)cc1 (relative stereo)
8. Clc1ccc2c(c1)C[C@H]1C[C@@H](c3ccccc3)N2O1 (relative stereo)

A.
> 300 µM
> 300 µM
> 300 µM
> 300 µM
> 300 µM
> 300 µM
> 300 µM
> 300 µM

====

Would you mind telling me the reported Selectivity Index of each entry?
assay: Selectivity index, CC50 for human THP1 cells to IC50 for Leishmania chagasi MHOM/BR/74/PP75 amastigotes; format: functional, THP-1

Check out these entries, answers already filled in.
INSERT INTO measurements (compound, value_observed) VALUES
  ('Cc1ccc2c(c1)C[C@@H](O)C[C@@H](c1ccccc1Cl)N2 (relative stereo)', '>0.85'),
  ('Cc1cccc([C@@H]2C[C@@H]3Cc4ccccc4N2O3)c1 (relative stereo)', '>3'),
  ('O[C@@H]1Cc2cc(Cl)ccc2N[C@H](c2c(Cl)cccc2Cl)C1 (relative stereo)', '>1'),
  ('O[C@@H]1Cc2cc(F)ccc2N[C@H](c2ccccc2)C1 (relative stereo)', '>3'),
  ('Fc1cccc(Cl)c1[C@@H]1C[C@@H]2Cc3cc(Cl)ccc3N1O2 (relative stereo)', '>3'),
  ('O[C@@H]1Cc2ccccc2N[C@H](c2ccccc2F)C1 (relative stereo)', '>3'),
  ('Fc1cccc(Cl)c1[C@@H]1C[C@@H]2Cc3ccccc3N1O2 (relative stereo)', '>3'),
  ('O[C@@H]1Cc2cc(Br)ccc2N[C@H](c2ccccc2)C1 (relative stereo)', '>1');

Continue with the compound presented below.
The reported Selectivity Index of the compound O[C@@H]1Cc2ccccc2N[C@H](c2ccccc2Cl)C1 (relative stereo) was >3

Source listed as ChEMBL document CHEMBL1177650.
